Assignment: determine reported specific binding MFI for the given binders.
study-target: T1, human TIM-3 on cells (human, UniProt Q8TDQ0 22-301)
T1 construct: also called CHO-Tim3; rec CHOK1 cells expressing huTIM-3
experiment-summary: flow cytometry, human CD14+ monocytes donor3
Answers are plain numbers, in MFI.

For every item in the list below, what is its measured specific binding MFI?
1. Tim3_0026 (antibody, V domains shown) VH: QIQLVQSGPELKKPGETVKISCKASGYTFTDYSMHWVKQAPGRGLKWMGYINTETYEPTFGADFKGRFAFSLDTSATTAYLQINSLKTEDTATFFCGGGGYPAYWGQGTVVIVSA VL: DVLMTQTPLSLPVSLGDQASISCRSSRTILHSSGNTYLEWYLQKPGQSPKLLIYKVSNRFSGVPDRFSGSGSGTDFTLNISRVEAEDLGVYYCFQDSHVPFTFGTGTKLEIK
2. Tim3_0030 (antibody, V domains shown) VH: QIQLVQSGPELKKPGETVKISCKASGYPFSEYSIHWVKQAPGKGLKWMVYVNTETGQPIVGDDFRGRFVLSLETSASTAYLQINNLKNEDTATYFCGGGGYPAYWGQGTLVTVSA VL: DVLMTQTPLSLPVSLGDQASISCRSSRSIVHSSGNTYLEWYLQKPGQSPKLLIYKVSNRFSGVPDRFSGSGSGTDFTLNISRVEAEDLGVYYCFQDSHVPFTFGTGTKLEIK
3. Tim3_0016 variant (Tim3_0018) (antibody, V domains shown, also called TIM3-0016 variant (0018); aTim3 0018) VH: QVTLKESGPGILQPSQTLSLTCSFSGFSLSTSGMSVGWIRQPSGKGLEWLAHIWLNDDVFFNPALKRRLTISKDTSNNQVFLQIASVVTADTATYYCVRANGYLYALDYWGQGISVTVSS VL: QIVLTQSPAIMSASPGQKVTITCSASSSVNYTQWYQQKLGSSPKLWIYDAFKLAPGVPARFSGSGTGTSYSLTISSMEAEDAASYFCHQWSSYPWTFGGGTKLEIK

1. 900
2. 466
3. 1940
